assay: Inhibition of 12-O-tetradecanoylphorbol-13-acetate-induced EBV-early antigen activation in human Raji cells assessed as EA activation per 32 pmol TPA after 48 hrs; format: cell-based, human gammaherpesvirus 4
Measurement kind: IC50 (molar ratio)

>>> readout_number("CC(C)=CCc1c(O)c2c(c3c1OC(C)(C)C=C3)Oc1cc(O)c3c(c1OC2=O)C=CC(C)(C)O3 [GARCINISIDONE D]")
360
>>> readout_number("CC(C)=CCc1c2c(c(O)c3c1Oc1cc(O)c4c(c1OC3=O)C=CC(C)(C)O4)C=CC(C)(C)O2 [GARCINISIDONE C]")
370
>>> readout_number("COc1c(O)cc2c(c1CC=C(C)C)OC(=O)c1c(cc3c(c1O)C=CC(C)(C)O3)O2 [GARCINISIDONE B]")
410
>>> readout_number("COc1c(O)cc2c(c1CC=C(C)C)OC(=O)c1c(cc(O)c(CC=C(C)C)c1O)O2 [GARCINISIDONE A]")
365
>>> readout_number("CC1=C(/C=C/C(C)=C/C=C/C(C)=C/C=C/C=C(C)/C=C/C=C(C)/C=C/C2=C(C)CCCC2(C)C)C(C)(C)CCC1 [BETA CAROTENE]")
400
>>> readout_number("CC(C)=CCc1c(O)c(CC=C(C)C)c2c(c1O)C(=O)Oc1c(cc(O)c3c1C=CC(C)(C)O3)O2 [GARCINISIDONE E]")
350

---

test system: Raji; assay: Inhibition of 12-O-tetradecanoylphorbol-13-acetate-induced EBV-early antigen activation in human Raji cells assessed as EA activation at 500 molar ratio after 48 hrs relative to TPA; format: cell-based; design: scale not given: the % may be the effect or the level left; details: human gammaherpesvirus 4
Measurement kind: Activity (%)
# number only, unit % dropped from output

Form field - read-out: Activity; system: Raji; submitted item: COc1c(O)cc2c(c1CC=C(C)C)OC(=O)c1c(cc3c(c1O)C=CC(C)(C)O3)O2
50.6

Reported Activity for Raji, given CC(C)=CCc1c2c(c(O)c3c1Oc1cc(O)c4c(c1OC3=O)C=CC(C)(C)O4)C=CC(C)(C)O2 ?
41.8

Kindly state the measured Activity obtained for CC(C)=CCc1c(O)c2c(c3c1OC(C)(C)C=C3)Oc1cc(O)c3c(c1OC2=O)C=CC(C)(C)O3 with Raji.
40.4

Which measured Activity belongs to CC(C)=CCc1c(O)c(CC=C(C)C)c2c(c1O)C(=O)Oc1c(cc(O)c3c1C=CC(C)(C)O3)O2 , tested on Raji?
40

Form entry - test system: Raji; read-out: Activity; compound: COc1c(O)cc2c(c1CC=C(C)C)OC(=O)c1c(cc(O)c(CC=C(C)C)c1O)O2
44.2

---

// viability at 48 h, 1000 molar ratio relative to TPA lookup, one value per entry
assay: Cytotoxicity against human Raji cells assessed as cell viability at 1000 molar ratio after 48 hrs by trypan blue staining relative to TPA; format: cell-based; settings: read-out: Activity
Give just the numeric value; % need not be written.

Here is how some compounds turned out for viability at 48 h, 1000 molar ratio relative to TPA.
>>> readout_number("COc1c(O)cc2c(c1CC=C(C)C)OC(=O)c1c(cc3c(c1O)C=CC(C)(C)O3)O2")
70
>>> readout_number("CC(C)=CCc1c(O)c(CC=C(C)C)c2c(c1O)C(=O)Oc1c(cc(O)c3c1C=CC(C)(C)O3)O2")
70
>>> readout_number("COc1c(O)cc2c(c1CC=C(C)C)OC(=O)c1c(cc(O)c(CC=C(C)C)c1O)O2")
70
>>> readout_number("CC(C)=CCc1c(O)c2c(c3c1OC(C)(C)C=C3)Oc1cc(O)c3c(c1OC2=O)C=CC(C)(C)O3")
60

Below: the item to evaluate.
Record request: viability at 48 h, 1000 molar ratio relative to TPA value, item CC(C)=CCc1c2c(c(O)c3c1Oc1cc(O)c4c(c1OC3=O)C=CC(C)(C)O4)C=CC(C)(C)O2
70

Data credit: ChEMBL document CHEMBL1155700
